assay: recombinant barcode read abundance after kanamycin selection (control-corrected) (log10(CPM+1)); higher = more efficient recombination; sequences stand for … in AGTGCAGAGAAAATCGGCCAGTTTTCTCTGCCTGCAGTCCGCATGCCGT…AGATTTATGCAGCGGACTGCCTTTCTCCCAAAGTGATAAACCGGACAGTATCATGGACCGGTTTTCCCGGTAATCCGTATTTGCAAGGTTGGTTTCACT; site = the 11-nt target
Criterion: recombinant barcode read abundance (log10) meeting or surpassing 0.2. Met: y. Not met: n.

Consider the worked cases shown below.
INSERT INTO measurements (entry_sequence, category) VALUES
  ('GGAAGGTCTTGGGTTCTAACCTGTTGCAT (site GGAAGGTCTAT)', 'y'),
  ('TCAAGGCCTTGGGTTCTAACCTGTTGCCT (site CCAAGGCCTAG)', 'n'),
  ('TGCGCTACTTGGGTTCTAACCTGTTGCCT (site TGCGCGACTAG)', 'n');

Request: Exam item: decide whether the reported recombinant barcode read abundance (log10) for TCGAGTCCTTGGGTTCTAACCTGTTGCCA (site TCGAGTCCTTG) is at least 0.2.
Result: n

Request: Given the entry TCAAGGCCTTGGGTTCTAACCTGTTGCCT (site GCAAGGCCTAG) , answer whether its recombinant barcode read abundance (log10) meets or surpasses 0.2.
Result: n

Request: Could you verify whether the entry AACAGACCTTGGGTTCTAACCTGTTGCCT (site AACAGACCTAG) shows recombinant barcode read abundance (log10) of no less than 0.2?
Result: y

Request: Is the recorded value of recombinant barcode read abundance (log10) equal to or greater than 0.2 for this sequence? AGAAAGTCTTGGGTTCTAACCTGTTGCGT (site AGAGAGTCTAG)
Result: y

Request: Decide: recombinant barcode read abundance (log10) of AACTAAACTTGGGTTCTAACCTGTTGCCT (site AACTCAACTAG) >= 0.2?
Result: n

Request: Does the reported recombinant barcode read abundance (log10) for GTTTGTTCTTGGGTTCTAACCTGTTGCCT (site GTTTGTTCTAG) fall at or above the 0.2 mark?
Result: y

* * *

test: recombinant UMI read abundance after kanamycin selection (control-corrected) (log10(CPM+1)); higher = more efficient recombination; extreme values may be limits of the assay; sequences stand for … in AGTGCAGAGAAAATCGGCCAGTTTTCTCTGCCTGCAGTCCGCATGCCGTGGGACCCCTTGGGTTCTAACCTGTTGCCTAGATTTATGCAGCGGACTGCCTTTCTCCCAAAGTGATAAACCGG…AGGTTGGTTTCACT; site = the 11-nt donor
Reported recombinant UMI read abundance (log10) by item:
Provide a numeric answer; units are not to be included.

Before answering, review these 5 worked examples.
INSERT INTO results (entry_sequence, value) VALUES
  ('CCGTTAGCATGGACCGGTTTTCCCGGTAATCCGTATTTGTA (site CCGTTAGCTCA)', 0.00671),
  ('CGAGGATCATGGACCGGTTTTCCCGGTAATCCGTATTTGAC (site CTAGTATCTGT)', 0),
  ('CTTTTATCATGGACCGGTTTTCCCGGTAATCCGTATTTGAC (site CTAGTATCTGT)', 0.225),
  ('AATCTCCCATGGACCGGTTTTCCCGGTAATCCGTATTTGCT (site AATCTCCCTAG)', 0.736),
  ('CCGTAGCCATGGACCGGTTTTCCCGGTAATCCGTATTTGCC (site CCATAGCCTGG)', 0);

Request: What does the record list as recombinant UMI read abundance (log10) for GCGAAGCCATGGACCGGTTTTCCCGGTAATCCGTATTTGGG (site GCGATGCCTCC) ?
Result: 0

Request: # query: recombinant UMI read abundance (log10) of entry ATAGTATCATGGACCGGTTTTCCCGGTAATCCGTATTTGCG (site ATAGTATCTCG)
Result: 3.07

Request: // recombinant UMI read abundance (log10) lookup, key: TGCACAGCATGGACCGGTTTTCCCGGTAATCCGTATTTGGC (site TGCACAGCTGC)
Result: 1.05

Request: Can you share its recombinant UMI read abundance (log10)? I mean this sequence: AGGAAGGCATGGACCGGTTTTCCCGGTAATCCGTATTTGGA (site AGGAAGACTTG)
Result: 0.224

Request: For the sequence shown here, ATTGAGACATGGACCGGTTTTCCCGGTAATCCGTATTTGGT (site AGTGAGACTAC) , give the reported recombinant UMI read abundance (log10).
Result: 0.609

Request: Requested field: recombinant UMI read abundance (log10). Item: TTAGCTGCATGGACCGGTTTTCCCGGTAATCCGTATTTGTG (site TTAGGTGCTCA)
Result: 0.0094

* * *

# recombinant UMI read abundance (log10) listing for each entry below
experiment: recombinant UMI read abundance after kanamycin selection (control-corrected) (log10(CPM+1)); higher = more efficient recombination; extreme values may be limits of the assay; sequences stand for … in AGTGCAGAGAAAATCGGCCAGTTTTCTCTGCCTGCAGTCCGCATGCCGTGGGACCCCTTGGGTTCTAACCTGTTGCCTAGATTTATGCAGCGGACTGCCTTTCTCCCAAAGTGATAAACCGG…AGGTTGGTTTCACT; site = the 11-nt donor
Output: the number by itself.

These solved cases illustrate the format of a correct answer.
INSERT INTO results (entry_sequence, value) VALUES
  ('TTCTTGACATGGACCGGTTTTCCCGGTAATCCGTATTTGTG (site TTCTTGACTCA)', 0.0069),
  ('CGCTCAGCATGGACCGGTTTTCCCGGTAATCCGTATTTGGG (site CGCTCAGCTCC)', 0.0677);

Request: Fill in: recombinant UMI read abundance (log10) of CAGTCCACATGGACCGGTTTTCCCGGTAATCCGTATTTGGG (site CAGTCGACTCC) is ___
Result: 0.024

Request: State the recorded recombinant UMI read abundance (log10) for this entry: ACGGTAGCATGGACCGGTTTTCCCGGTAATCCGTATTTGCA (site ACGGTAGCTTG)
Result: 2.74

Request: Form field: reported recombinant UMI read abundance (log10) of TAGCCGGCATGGACCGGTTTTCCCGGTAATCCGTATTTGGC (site TCGCCGGCTGC)
Result: 0

* * *

assay: recombinant barcode read abundance after kanamycin selection (control-corrected) (log10(CPM+1)); higher = more efficient recombination; sequences stand for … in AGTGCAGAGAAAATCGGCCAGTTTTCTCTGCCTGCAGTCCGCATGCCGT…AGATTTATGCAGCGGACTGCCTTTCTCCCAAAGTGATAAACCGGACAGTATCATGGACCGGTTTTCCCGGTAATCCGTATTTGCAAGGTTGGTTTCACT; site = the 11-nt target
Think of 0.1 as a floor: if recombinant barcode read abundance (log10) stands on it or above, it is Satisfied; beneath it, Not satisfied.

Use these answered entries as a reference point.
INSERT INTO assay_data (entry_sequence, category) VALUES
  ('ACTTAGACTTGGGTTCTAACCTGTTGCGG (site ACTTAGACTCC)', 'Satisfied'),
  ('TATACTACTTGGGTTCTAACCTGTTGCTA (site TATACTACTTA)', 'Not satisfied');

Request: Is recombinant barcode read abundance (log10) at least 0.1? Consider TAGCCTTCTTGGGTTCTAACCTGTTGCTA (site TAGCCTTCTCA)
Result: Not satisfied

* * *

experiment: recombinant barcode read abundance after kanamycin selection (control-corrected) (log10(CPM+1)); higher = more efficient recombination; sequences stand for … in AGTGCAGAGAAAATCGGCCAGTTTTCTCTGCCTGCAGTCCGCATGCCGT…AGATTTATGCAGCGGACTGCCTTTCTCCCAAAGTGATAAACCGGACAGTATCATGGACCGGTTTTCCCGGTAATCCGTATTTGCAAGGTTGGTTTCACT; site = the 11-nt target
Lab note: compare recombinant barcode read abundance (log10) against 0.3. Equal or greater, write Fulfilled. Smaller, write Not fulfilled.

Solved entries:
INSERT INTO assay_data (entry_sequence, category) VALUES
  ('CATTTCCCTTGGGTTCTAACCTGTTGCCT (site CATTTCCCTAA)', 'Not fulfilled'),
  ('TCTCAGTCTTGGGTTCTAACCTGTTGCGG (site TCCCAGTCTCA)', 'Not fulfilled'),
  ('CTTCGTCCTTGGGTTCTAACCTGTTGCGT (site CTTCGTCCTAT)', 'Fulfilled');

Request: Is recombinant barcode read abundance (log10) for GGGTCCTCTTGGGTTCTAACCTGTTGCCA (site GGGTCCTCTTG) at or above 0.3?
Result: Fulfilled

Request: Record TAGAATCCTTGGGTTCTAACCTGTTGCAA (site TAGAATCCTCT) ; criterion: recombinant barcode read abundance (log10) no lower than 0.3. Met?
Result: Not fulfilled

Request: Assess whether reported recombinant barcode read abundance (log10) for CATCGGACTTGGGTTCTAACCTGTTGCTA (site CATCGGACTTA) sits at 0.3 or higher.
Result: Fulfilled

Request: Tell me whether recombinant barcode read abundance (log10) is at least 0.3 here: AAAGGGTCTTGGGTTCTAACCTGTTGCCT (site ACAGGGTCTAG)
Result: Fulfilled

Request: Check if recombinant barcode read abundance (log10) >= 0.3 (inclusive). Item: ATCCATCCTTGGGTTCTAACCTGTTGCCT (site ATCCACCCTAG)
Result: Not fulfilled

Request: In plain terms: is recorded recombinant barcode read abundance (log10) at least 0.3 for GACTCTCCTTGGGTTCTAACCTGTTGCGT (site GACTCTCCTAT) ?
Result: Fulfilled
